- tested.target: Tyrosine-protein kinase ZAP-70 (Homo sapiens) (UniProt P43403);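 also: values are mean percent inhibition of ZAP-70 kinase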
- Sequence (P43403 whole entry): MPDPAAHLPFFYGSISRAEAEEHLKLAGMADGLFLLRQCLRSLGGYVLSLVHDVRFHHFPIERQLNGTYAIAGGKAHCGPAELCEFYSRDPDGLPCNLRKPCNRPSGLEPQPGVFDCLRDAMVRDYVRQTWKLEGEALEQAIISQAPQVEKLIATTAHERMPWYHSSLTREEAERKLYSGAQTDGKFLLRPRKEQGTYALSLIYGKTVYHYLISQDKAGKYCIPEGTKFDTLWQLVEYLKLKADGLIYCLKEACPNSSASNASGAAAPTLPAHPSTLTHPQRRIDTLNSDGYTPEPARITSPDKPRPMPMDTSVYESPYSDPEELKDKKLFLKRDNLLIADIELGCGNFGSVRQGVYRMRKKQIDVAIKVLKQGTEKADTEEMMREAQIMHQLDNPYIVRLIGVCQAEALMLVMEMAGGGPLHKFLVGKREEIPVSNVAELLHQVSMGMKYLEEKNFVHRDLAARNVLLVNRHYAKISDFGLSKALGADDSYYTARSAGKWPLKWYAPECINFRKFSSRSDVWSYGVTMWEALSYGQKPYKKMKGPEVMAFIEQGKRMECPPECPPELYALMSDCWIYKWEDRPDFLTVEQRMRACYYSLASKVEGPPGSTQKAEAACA
- experimental.parameters: at 0.1 µM

chemical.smiles	tested.target	inhibition / %
c1ccc(-c2n[nH]cc2-c2ccnc(-c3ccc(OCCN4CCOCC4)cc3)c2)nc1	Tyrosine-protein kinase ZAP-70 (Homo sapiens) (UniProt P43403)	5
CNC(=O)c1cncc(/C=C/c2c(C)cccc2C)c1	Tyrosine-protein kinase ZAP-70 (Homo sapiens) (UniProt P43403)	-2.13
Fc1ccc(-c2ncn(C3CCNCC3)c2-c2ccnc(Oc3ccc(Oc4ccccc4)cc3)n2)cc1	Tyrosine-protein kinase ZAP-70 (Homo sapiens) (UniProt P43403)	0.95

====

- tested.target: Mitogen-activated protein kinase kinase kinase kinase 4 (Homo sapiens) (UniProt O95819)
- Sequence (O95819 2-1239 limits assumed): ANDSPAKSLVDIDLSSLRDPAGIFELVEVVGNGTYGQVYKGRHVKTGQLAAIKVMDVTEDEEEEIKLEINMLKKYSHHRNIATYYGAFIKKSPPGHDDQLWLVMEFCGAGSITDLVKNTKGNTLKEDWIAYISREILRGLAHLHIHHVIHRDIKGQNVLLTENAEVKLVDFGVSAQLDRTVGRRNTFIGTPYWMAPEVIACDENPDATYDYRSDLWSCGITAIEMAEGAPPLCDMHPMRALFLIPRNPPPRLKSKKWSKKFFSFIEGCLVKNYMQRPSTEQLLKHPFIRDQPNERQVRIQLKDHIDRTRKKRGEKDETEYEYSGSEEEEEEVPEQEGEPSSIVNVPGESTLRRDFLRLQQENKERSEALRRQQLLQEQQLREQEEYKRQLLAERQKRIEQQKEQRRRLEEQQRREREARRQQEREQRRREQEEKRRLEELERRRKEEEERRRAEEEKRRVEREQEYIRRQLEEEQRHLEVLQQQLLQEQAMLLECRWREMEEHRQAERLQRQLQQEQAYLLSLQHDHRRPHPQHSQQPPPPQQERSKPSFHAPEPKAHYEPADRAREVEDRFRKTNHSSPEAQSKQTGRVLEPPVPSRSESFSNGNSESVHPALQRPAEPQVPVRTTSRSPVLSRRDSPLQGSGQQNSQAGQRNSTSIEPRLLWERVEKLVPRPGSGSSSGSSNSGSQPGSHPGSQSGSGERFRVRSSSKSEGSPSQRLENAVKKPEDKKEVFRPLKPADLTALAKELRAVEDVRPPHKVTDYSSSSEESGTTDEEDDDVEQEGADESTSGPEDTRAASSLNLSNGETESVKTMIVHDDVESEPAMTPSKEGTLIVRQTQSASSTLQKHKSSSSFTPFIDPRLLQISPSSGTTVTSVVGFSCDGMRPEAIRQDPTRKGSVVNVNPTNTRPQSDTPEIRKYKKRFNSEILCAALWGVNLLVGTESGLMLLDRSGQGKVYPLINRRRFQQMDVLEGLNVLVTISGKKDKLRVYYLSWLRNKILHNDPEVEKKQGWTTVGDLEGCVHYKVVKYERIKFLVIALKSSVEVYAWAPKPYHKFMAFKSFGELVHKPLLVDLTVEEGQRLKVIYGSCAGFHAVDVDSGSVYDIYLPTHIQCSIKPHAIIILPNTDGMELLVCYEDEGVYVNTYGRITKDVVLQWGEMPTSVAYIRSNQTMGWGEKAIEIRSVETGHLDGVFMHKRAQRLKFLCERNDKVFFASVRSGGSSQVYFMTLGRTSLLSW
- experimental.parameters: at 0.1 µM
- Description: GSK_PKIS: MAP4K4 mean inhibition at 0.1 uM [Nanosyn]
readout.name: inhibition

compound	result
Cc1nnc(-c2ccc(C)c(-c3ccc(C(=O)NCc4ccc(Cl)cc4)cc3)c2)o1	5.65%
C[C@@H](Oc1cc(-n2cnc3ccc(OC4CCN(C)CC4)cc32)sc1C(N)=O)c1ccccc1Cl	3.22%
O=C(Nc1n[nH]c2cc(-c3cc(F)ccc3F)ccc12)C1CC1	16.4%
CN(C)c1ccc2c(c1)/C(=C/Nc1ccc(S(N)(=O)=O)cc1)C(=O)N2	23.9%
Fc1ccc(-c2ncn(C3CCNCC3)c2-c2ccnc(Oc3ccc(F)c(F)c3)n2)cc1	9.16%
Fc1ccc(-c2c(-c3ccncc3)nc3n2CCS3)cc1	4.23%
c1ccc(Oc2ccc(Nc3ncc(-c4ccccc4)o3)cc2)cc1	3.28%
NS(=O)(=O)c1ccc(N/N=C2\C(=O)Nc3ccc(C(=O)NCCCn4ccnc4)cc32)cc1	10.8%
C#Cc1cccc(Nc2ncnc3ccc(OCCCCNCCS(C)(=O)=O)cc23)c1	5.65%
Nc1nccc(-c2c(-c3ccc(F)cc3)ncn2C2CCC(O)CC2)n1 (stereo not drawn)	9.24%
CCc1ccc(Oc2nccc(-c3c(-c4ccc(F)cc4)ncn3C3CCNCC3)n2)cc1	2.58%
CCN(CC)Cc1ccc(Nc2nccc(-c3cnn4ncccc34)n2)cc1	5.41%
O=C(Nc1n[nH]c2nc(-c3ccc(O)cc3)c(Br)cc12)C1CC1	32.2%
O=C1Nc2ccc(I)cc2C1=Cc1cc(Br)c(O)c(Br)c1	31.7%
COc1cccc(-n2cnc3c(N/N=C/c4ccncc4)ncnc32)c1	1.22%
CS(=O)(=O)CCNCc1cc(-c2cc3c(Nc4ccc(OCc5cccc(F)c5)c(Cl)c4)ncnc3s2)cs1	4.31%
COc1cc2ncn(-c3cc(OCc4ccccc4C(F)(F)F)c(C(C)=O)s3)c2cc1OC	4.05%
Clc1ccc(CNc2nccc(-c3cnn4ncccc34)n2)cc1	3.91%
